TARGET_UNDER_TEST: T1, RBFOX1 RRM (Homo sapiens, UniProt Q9NWB1 109-208)
T1 sequence: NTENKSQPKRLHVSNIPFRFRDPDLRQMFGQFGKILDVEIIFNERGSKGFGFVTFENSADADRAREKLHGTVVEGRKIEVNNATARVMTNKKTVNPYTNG
METHOD_SUMMARY: EMSA; HiTS-Eq, 1 nM pool, 10 min; buffer printed only for the single-RNA assays: 10 mM Tris pH 7.5, 150 mM NaCl, 3.4 mM EDTA, 0.001% NP-40, 30 C
CONDITION_DETAILS: tags: His6 N-terminal (pET28a); label: 5' 32P
Over roughly 16,000 sequences, “ka relative to ugcaugu” has its median near 0.0091; the highest 2% begin near 0.032. The sample as a whole holds a higher share of the highest values than the screen did.
Catalogue of binding signal values

Example entries and their recorded answers appear below.
{"BINDER": "UCGUAUU (DNA:RNA) RNA: GGGAGACCGGAAUUCAGAUUGUCCUCGUAUUUUAAAUCCCGUCGUAGCCACCA DNA 1: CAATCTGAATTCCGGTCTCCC DNA 2: TGGTGGCTACGACGGGATT", "READOUT_TYPE": "binding signal", "VAL": "0.00649 KA relative to UGCAUGU"}
{"BINDER": "AAUGCCC (DNA:RNA) RNA: GGGAGACCGGAAUUCAGAUUGUCCAAUGCCCUUAAAUCCCGUCGUAGCCACCA DNA 1: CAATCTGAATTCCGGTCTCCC DNA 2: TGGTGGCTACGACGGGATT", "READOUT_TYPE": "binding signal", "VAL": "0.00474 KA relative to UGCAUGU"}

Query block: Supply measured binding signal of CCGGGGC (DNA:RNA) RNA: GGGAGACCGGAAUUCAGAUUGUCCCCGGGGCUUAAAUCCCGUCGUAGCCACCA DNA 1: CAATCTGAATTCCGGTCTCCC DNA 2: TGGTGGCTACGACGGGATT in your reply.
Result block: 0.0147 KA relative to UGCAUGU

Query block: Look up binding signal of CAAGGGU (DNA:RNA) RNA: GGGAGACCGGAAUUCAGAUUGUCCCAAGGGUUUAAAUCCCGUCGUAGCCACCA DNA 1: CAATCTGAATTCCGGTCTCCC DNA 2: TGGTGGCTACGACGGGATT and report it.
Result block: 0.00279 KA relative to UGCAUGU

All values here come from paper PMC9911399.
